Sourced from ChEMBL document CHEMBL3102711

PROCEDURE SUMMARY: Antiproliferative activity against human DG75 cells after 72 hrs by Alamar blue assay
Assay type: functional, cell-based
CONDITION NOTES: DG-75, 72 h
MEASUREMENT LABEL: EC50

Below are worked cases with known answers.
CCOC(=O)N1CCN(C(=O)/C=C/c2c3ccccc3cc3ccccc23)CC1 | 11.6 µM
CCOC(=O)C1CC2c3ccccc3C1c1ccccc12 (stereo unspecified) | > 100 µM
COC(=O)C(Cc1ccc(O)cc1)NC(=O)C1CC2c3ccccc3C1c1ccccc12 (stereo unspecified) | 54.6 µM
CNC(=O)/C=C/C12c3ccccc3C(CC1C#N)c1ccccc12 (stereo unspecified) | > 100 µM
CN(C(=O)C1CC2c3ccccc3C1(C=O)c1ccccc12)C1CCCCC1 (stereo unspecified) | > 100 µM
CNC(=O)/C=C/c1c2ccccc2cc2ccccc12 | > 100 µM

Qu. Bench note: what EC50 did CN1CCN(C(=O)/C=C/c2c3ccccc3cc3ccccc23)CC1 show?
Ans. 62.1 µM

Qu. Bench note: what EC50 did CCOC(=O)/C=C/c1c2ccccc2cc2ccccc12 show?
Ans. > 100 µM

Qu. Bench note: what EC50 did CCN(CC)C(=O)/C=C/c1c2ccccc2cc2ccccc12 show?
Ans. 9.3 µM

Qu. Bench note: what EC50 did N#C/C=C/c1c2ccccc2cc2ccccc12 show?
Ans. > 100 µM

Qu. Bench note: what EC50 did CCOC(=O)C1C2c3ccccc3C(c3ccccc32)C1C(=O)OCC (stereo unspecified) show?
Ans. > 100 µM
